- Measured target: benzodiazepine receptors
- Protocol text: Radioligand binding, displacement of [3H]-βCCE
- Experimental setup: rat whole brain membranes, 0.5nM [3H] ligand
pKi: −log10 of the molar value. Where a name gives a salt, the structure may show the parent alone.
Measurement name: pKi

molecule="Cc1[nH]c2ccsc2c2nn(-c3ccc(Cl)cc3)c(=O)c1-2 [Example E20]" measurement_name=pKi qualifying_sign== reported=5.66
molecule="CCOC(=O)c1cnc2ccsc2c1NNc1ccc(C)cc1 [Example E5]" measurement_name=pKi qualifying_sign=< reported=4.00
molecule="O=c1c2c[nH]c3ccsc3c-2nn1-c1cc(Cl)cc(Cl)c1 [Example E22]" measurement_name=pKi qualifying_sign== reported=6.77
molecule="CCOC(=O)c1cnc2ccsc2c1NNc1ccc(OC)cc1 [Example E8]" measurement_name=pKi qualifying_sign== reported=5.48
molecule="CCOC(=O)c1c(C)nc2ccsc2c1NNc1ccc(Cl)cc1 [Example E11, monohydrochloride]" measurement_name=pKi qualifying_sign== reported=6.54

* * *

- Measured target: benzodiazepine receptors
- Protocol text: Radioligand binding, displacement of [3H]-Flunitrazepam
- Experimental setup: rat whole brain membranes, 0.5nM [3H] ligand; read-out: [^3H]-Flu Ki
- Protocol: An interaction with benzodiazepine receptors in the central nervous system may be indicative of anxiolytic activity since inhibition of benzodiazepine binding correlates with the clinical efficacy of benzodiazepines. [^3H]-Flunitrazepam and [^3H]-βCCE selectively label benzodiazepine receptors and displacement of this specific binding in vitro by novel compounds in well-washed, frozen rat whole brain membranes is measured essentially as described by Martin and Candy (1978). […]
Structures can show the parent of a compound that is named as a salt.
Please use Met for Ki under 1000 nM and Not met for everything else, ties included.

compound=COc1ccc(-n2nc3c4sccc4[nH]cc-3c2=O)cc1 class_assignment=Met
compound=Cc1[nH]c2ccsc2c2nn(-c3ccccc3)c(=O)c1-2 class_assignment=Met
compound=CCOC(=O)c1cnc2ccsc2c1NNc1ccc(OC)cc1 class_assignment="Not met"
compound=CCc1cc2c3nn(-c4ccc(Cl)cc4)c(=O)c-3c[nH]c2s1 class_assignment=Met
compound="CCOC(=O)c1cnc2ccsc2c1NNc1ccccn1 [Example E6, monohydrochloride]" class_assignment=Met
compound=O=c1c2c[nH]c3ccsc3c-2nn1-c1ccc(Cl)cc1 class_assignment=Met
compound="CCOC(=O)c1c(C)nc2ccsc2c1NNc1ccccc1 [Example E10, monohydrochloride]" class_assignment="Not met"
compound=O=c1c2c[nH]c3ccsc3c-2nn1-c1ccccn1 class_assignment=Met

* * *

- Measured target: benzodiazepine receptors
- Protocol text: Radioligand binding, displacement of [3H]-Flunitrazepam
- Experimental setup: rat whole brain membranes, 0.5nM [3H] ligand; read-out: [^3H]-Flu Ki
pKi: −log10 of the molar value. Structures can show the parent of a compound that is named as a salt.
Hi, to clarify the labels: criterion met covers pKi from 7 upward, criterion not met covers anything below 7.

compound="CCOC(=O)c1cnc2ccsc2c1NNc1ccccc1 [Example E1, monohydrochloride]" class_assignment="criterion not met"
compound=Cc1ccc(-n2nc3c4sccc4[nH]cc-3c2=O)cc1 class_assignment="criterion met"
compound="CCOC(=O)c1c(C)nc2ccsc2c1NNc1ccc(Cl)cc1 [Example E11, monohydrochloride]" class_assignment="criterion not met"
compound=CCc1cc2c3nn(-c4ccc(Cl)cc4)c(=O)c-3c(C)[nH]c2s1 class_assignment="criterion not met"
compound=CCOC(=O)c1cnc2ccsc2c1NNc1ccc(C)cc1 class_assignment="criterion not met"
compound=O=c1c2c[nH]c3cscc3c-2nn1-c1ccc(Cl)cc1 class_assignment="criterion met"
compound=Cc1[nH]c2ccsc2c2nn(-c3ccc(Cl)cc3)c(=O)c1-2 class_assignment="criterion not met"
compound=O=c1c2c[nH]c3ccsc3c-2nn1-c1cc(Cl)cc(Cl)c1 class_assignment="criterion not met"

The reported numbers originate from patent EP0126970A2.
